SYSTEM_NAME: rat A3AR (Rattus norvegicus, UniProt P28647)
Sequence (P28647 whole entry): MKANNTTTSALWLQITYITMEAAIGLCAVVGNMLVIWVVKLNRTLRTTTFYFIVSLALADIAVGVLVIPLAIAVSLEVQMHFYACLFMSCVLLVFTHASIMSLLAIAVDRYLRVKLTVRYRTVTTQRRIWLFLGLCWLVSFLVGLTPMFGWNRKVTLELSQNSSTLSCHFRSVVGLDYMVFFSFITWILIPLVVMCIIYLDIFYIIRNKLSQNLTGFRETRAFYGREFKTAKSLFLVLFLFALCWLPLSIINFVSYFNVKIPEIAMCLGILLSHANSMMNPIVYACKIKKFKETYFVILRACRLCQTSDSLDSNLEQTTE
METHOD_DESCRIPTION: Competitive radioligand binding at rat A3AR in CHO cell membranes using [76Br]4
CONDITION_CONTEXT: read-out: Rat Ki; CHO cell membranes, radioligand [76Br]4 0.5 nM, 25°C 60 min
Quick reference for pKi among some compounds
Friendly reminder that pKi comes from taking -log10 of the concentration in mol/L.

*Q* Value wanted: pKi (rat A3AR (Rattus norvegicus, UniProt P28647)) of entry CCCOC(=O)c1c(-c2ccccc2)nc(CC)c(C(=O)SCC)c1CCC [MRS1523, reference compound]
*A* 6.03

Now take the following compound into account.
*Q* Value wanted: pKi (rat A3AR (Rattus norvegicus, UniProt P28647)) of entry CNC(=O)[C@]12C[C@@H]1[C@@H](n1cnc3c(NCc4cccc(Br)c4)nc(Cl)nc31)[C@H](O)[C@@H]2O
*A* 9.05

* * *

SYSTEM_NAME: UniProtKB P28647
CONDITION_CONTEXT: read-out: Rat Ki; CHO cell membranes, radioligand [76Br]MRS5147 6
OBSERVED_PROPERTY: Ki (nM)
Unit nM implied. Number only.

*Q* Find the recorded Ki belonging to CCCOC(=O)c1c(-c2ccccc2)nc(CC)c(C(=O)SCC)c1CCC [MRS1523, reference compound] and report it.
*A* 2830
